Target Under Test: Serine/threonine-protein kinase 4 (Homo sapiens, UniProt Q13043)
Test Details: Inhibition of MST1 (unknown origin) expressed in HEK293T cells using NanoGlo as substrate incubated for 20 hrs by NanoBRET assay
Readout: log10 of EC50 (log10 of the value in µM)
Note the log scale: values are log10 of EC50 expressed in µM.

Below, 3 compounds whose answers are already recorded.
Return reported log10 of EC50; argument: `Cc1cccc(-c2ccc(-c3cc4cnc(Nc5cc(C(F)(F)F)ccc5C)nc4n(CCCCN)c3=O)c(Cl)c2)n1`
0.76

`CNc1ncc2cc(-c3ccc(-c4cccc(C)n4)cc3Cl)c(=O)n(C[C@H]3OC[C@H](N)CO3)c2n1` , same question.
1.48

`CNc1ncc2cc(-c3ccc(-c4cccc(C)n4)cc3Cl)c(=O)n(CCCCO)c2n1` , same question.
0.53

Others:
Return reported log10 of EC50; argument: `Cc1cccc(-c2ccc(-c3cc4cnc(Nc5ccc(F)c(CO)c5)nc4n(CCCCN)c3=O)c(Cl)c2)n1`
-0.50

`CNc1ncc2cc(-c3ccc(-c4cccc(C)n4)cc3Cl)c(=O)n(CCCCN)c2n1` , same question.
0.61

`Cc1cccc(-c2ccc(-c3cc4cnc(NCCCN5CCOCC5)nc4n(CCCCN)c3=O)c(Cl)c2)n1` , same question.
0.72

* * *

# key: entry, value: pEC50
Target Under Test: Serine/threonine-protein kinase 4 (Homo sapiens, UniProt Q13043)
Sequence (Q13043 whole entry): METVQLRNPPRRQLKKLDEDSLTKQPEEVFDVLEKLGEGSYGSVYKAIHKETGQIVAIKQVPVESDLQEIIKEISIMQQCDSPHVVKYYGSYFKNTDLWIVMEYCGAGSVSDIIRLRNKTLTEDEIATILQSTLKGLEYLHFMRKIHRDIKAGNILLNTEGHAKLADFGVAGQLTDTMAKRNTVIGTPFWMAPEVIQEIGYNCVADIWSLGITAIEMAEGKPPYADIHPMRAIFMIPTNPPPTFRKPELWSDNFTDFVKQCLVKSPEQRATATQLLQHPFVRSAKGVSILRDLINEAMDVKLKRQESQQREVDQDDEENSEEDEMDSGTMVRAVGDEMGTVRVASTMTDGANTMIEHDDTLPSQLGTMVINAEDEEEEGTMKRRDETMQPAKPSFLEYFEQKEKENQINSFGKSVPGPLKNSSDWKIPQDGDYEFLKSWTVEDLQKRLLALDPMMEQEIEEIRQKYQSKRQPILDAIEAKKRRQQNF
Test Details: Inhibition of MST1 (unknown origin) expressed in HEK293T cells using NanoGlo as substrate incubated for 20 hrs by NanoBRET assay
Please report pEC50 as the negative decimal logarithm of the molar concentration, giving only the number.

Below, 3 compounds whose answers are already recorded.
Return reported pEC50; argument: `Cc1cccc(-c2ccc(-c3cc4cnc(Nc5ccc(C)c(O)c5)nc4n(CCCCN)c3=O)c(Cl)c2)n1`
6.28

`CNc1ncc2cc(-c3ccc(-c4cccc(C)n4)cc3Cl)c(=O)n(CCC3CCNCC3)c2n1` , same question.
5.80

`COc1ccc(O)c(Nc2ncc3cc(-c4ccc(-c5cccc(C)n5)cc4Cl)c(=O)n(CCCCN)c3n2)c1` , same question.
5.48

Now take the following compound into account.
Return reported pEC50; argument: `CNc1ncc2cc(-c3ccc(-c4cccc(C)n4)cc3Cl)c(=O)n(C)c2n1`
4.89
